Just for reference, patent EP0516861A1 is where these values come from.

- targetDesc: DNA topoisomerase II
- methodDescription: DNA topoisomerase inhibition activity (DNA relaxation, agarose-gel electrophoresis)
- Assay type: biochemical, murine
- measurementContext: relaxation of supercoiled pBR 322 plasmid DNA, 37°C for 10 minutes, enzyme from L1210 nuclei
Where a name gives a salt, the structure may show the parent alone.
attributeMeasured: IC₅₀ DNA topoisomerase II (µg/mL)
# value in µg/mL; strip the unit string

The cases that follow already have their IC₅₀ DNA topoisomerase II on record.
compound | targetDesc | attributeMeasured | testValue
COc1c(N2C[C@H]3CC=C[C@@H](N)[C@H]3C2)c(F)cc2c(=O)c(C(=O)O)cn(C3CC3)c12 (relative stereo) [Compound of Ex.11, hydrochloride] | DNA topoisomerase II | IC₅₀ DNA topoisomerase II | 2
Cl.N[C@@H]1C=CC[C@@H]2CN(c3c(F)cc4c(=O)c(C(=O)O)cn(C5CC5)c4c3F)C[C@@H]21 (single isomer, unassigned) [Compound of Ex.9, hydrochloride] | DNA topoisomerase II | IC₅₀ DNA topoisomerase II | 2

Item: Cl.Nc1c(F)c(N2C[C@H]3CC=C[C@@H](N)[C@H]3C2)c(F)c2c1c(=O)c(C(=O)O)cn2C1CC1 (single isomer, unassigned) [Compound of Ex.13, hydrochloride] | System: DNA topoisomerase II | IC₅₀ DNA topoisomerase II: 4
